- assayTarget: Orexin/Hypocretin receptor type 1 (Homo sapiens, UniProt O43613)
- Sequence (O43613 whole entry): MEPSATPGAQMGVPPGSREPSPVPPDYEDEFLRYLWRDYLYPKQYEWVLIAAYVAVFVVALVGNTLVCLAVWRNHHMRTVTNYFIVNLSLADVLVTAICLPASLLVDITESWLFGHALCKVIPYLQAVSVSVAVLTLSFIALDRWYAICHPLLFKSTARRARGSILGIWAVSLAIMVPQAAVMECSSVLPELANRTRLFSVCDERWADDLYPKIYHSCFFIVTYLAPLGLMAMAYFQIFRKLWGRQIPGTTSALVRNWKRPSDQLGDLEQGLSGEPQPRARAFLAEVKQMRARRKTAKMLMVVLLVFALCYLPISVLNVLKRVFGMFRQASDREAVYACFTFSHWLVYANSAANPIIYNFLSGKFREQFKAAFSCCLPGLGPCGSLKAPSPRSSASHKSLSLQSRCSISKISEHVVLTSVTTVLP
Reported pKd on Orexin/Hypocretin receptor type 1 (Homo sapiens, UniProt O43613) for assorted compounds, compiled from publications.
Numbers only, as −log10 of the molar value.

- O=C(c1nccc2[nH]cnc12)N1CCC(F)(F)[C@@H](Oc2ccc3ccccc3n2)C1: 8.32

Provide each entry's pKd from the list below.
1. Cc1cc(NC(=O)Nc2ccc(N(C)C)cc2)c2cc(F)cc(F)c2n1
2. CN(C)c1ccc(NC(=O)Nc2ccnc3c(F)ccc(F)c23)cc1
3. O=C(c1cccn2cncc12)N1CCC(F)(F)[C@@H](Oc2ccc3ccccc3n2)C1
4. CCn1nc(C)cc1C(=O)NCC[C@H](Cc1ccccc1)N(C)C(=O)c1cc(C)ccc1-n1nccn1

Result ::
[7.57, 8.35, 9.03, 5.52]

Notebook: Cc1nc(C(=O)N2CCC[C@H]2Cc2nnc(-c3ccccc3)o2)c(-c2ccccc2F)s1 , pKd read as 8.29
